- testedSystem: T1, human PCSK9 (proprotein convertase subtilisin kexin type 9) (human, UniProt Q8NBP7 31-692)
- T1 construct: immobilized directly (ProteOn), biotinylated (Octet) or in solution, according to the assay; also called hPCSK9; PCSK9-AF647 (labelled form)
- T1 sequence (Q8NBP7 31-692 limits assumed): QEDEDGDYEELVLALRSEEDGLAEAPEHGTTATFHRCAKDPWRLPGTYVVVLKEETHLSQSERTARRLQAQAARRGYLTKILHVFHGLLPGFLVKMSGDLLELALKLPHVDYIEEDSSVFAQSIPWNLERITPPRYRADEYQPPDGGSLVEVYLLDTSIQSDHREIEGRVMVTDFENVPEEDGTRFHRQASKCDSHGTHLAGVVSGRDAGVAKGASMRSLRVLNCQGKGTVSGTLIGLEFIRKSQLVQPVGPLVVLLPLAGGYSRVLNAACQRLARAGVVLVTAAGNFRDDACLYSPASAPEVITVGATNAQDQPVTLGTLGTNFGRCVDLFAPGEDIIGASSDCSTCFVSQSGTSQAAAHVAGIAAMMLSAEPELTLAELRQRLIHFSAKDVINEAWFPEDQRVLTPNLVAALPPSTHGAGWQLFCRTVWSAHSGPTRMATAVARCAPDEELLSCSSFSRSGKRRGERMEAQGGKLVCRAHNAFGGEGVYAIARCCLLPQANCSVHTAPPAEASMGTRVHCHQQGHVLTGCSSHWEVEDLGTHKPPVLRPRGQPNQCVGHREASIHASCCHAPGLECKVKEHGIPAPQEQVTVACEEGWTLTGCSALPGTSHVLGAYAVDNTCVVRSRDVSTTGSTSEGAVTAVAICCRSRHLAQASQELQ
- test: BLI (Octet Red), 37 C
readoutType: Kd (nM)
Give just the number in nM; leave the unit off.

binder	Kd [nM]
2451H07 (designed binder) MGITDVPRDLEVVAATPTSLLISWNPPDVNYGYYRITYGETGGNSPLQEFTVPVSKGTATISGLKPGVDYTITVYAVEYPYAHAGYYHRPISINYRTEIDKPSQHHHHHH	2.08

Ask | What Kd value was documented for this binder, 2382E03 (designed binder) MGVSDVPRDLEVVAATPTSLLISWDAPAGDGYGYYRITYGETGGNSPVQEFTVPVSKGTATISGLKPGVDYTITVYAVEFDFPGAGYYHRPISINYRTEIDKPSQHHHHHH ?
Reply | 2.94

Ask | Requested read-out: Kd. Entry: 2382F05 (designed binder) MGVSDVPRDLEVVAATPTSLLISWDAPAEAGKHYGYYRITYGETGGNSPVQEFTVPVSKGTATISGLKPGVDYTITVYAVEFDFPGAGYYHRPISINYRTEIDKPSQHHHHHH
Reply | 4.54

Ask | Value lookup for Kd; key = 2381F11 (designed binder) MGVSDVPRDLEVVAATPTSLLISWDAPADGGYGYYRITYGETGGNSPVQEFTVPVSKSTATISGLKPGVDYTITVYAVEYTFPGAGYYHRPISINYRTEIDKPSQHHHHHH
Reply | 1.59
